tested on: SW-620; test: NCI tumour cell line growth inhibition, 48 h
Calls of active or inactive are those of the source. Cut-off read from the data, not from the text of the source: active = GI50 up to about 1.1 µM and inactive = higher.
# GI50 per entry
Measured Property: GI50

COc1cc(O)c2c(c1)C(=O)C=C(Cl)C2=O    > 100 µM (inactive)
CC(=O)C1(O)CCC2(O)C3(O)CC=C4CC(O)CCC4(C)C3CC(OC(=O)c3ccc(O)cc3)C12C.COC1CC(OC2C(C)OC(OC3C(C)OC(OC4CCC5(C)C(=CCC6(O)C5CC(OC(=O)c5ccc(O)cc5)C5(C)C(O)(C(C)=O)CCC65O)C4)CC3OC)CC2OC)OC(C)C1O (centres undefined)    42.1 µM (inactive)
CCc1cccc(C(C)CC)c1NC(=O)CC1C(=O)Nc2ccccc2[S+]1[O-] (centres undefined)    39.5 µM (inactive)
Cc1nc2c(nc1C)-c1[nH]c3c(c1C(=O)C2=O)CCCC3=O    1.95 µM (inactive)
CC(=O)C(C)(C)CCC(C)(C)C(C)=O    > 100 µM (inactive)
O=C(ON=C1c2ccccc2C(Br)C(Br)c2ccccc21)c1ccccc1 (centres undefined)    8.49 µM (inactive)
COCc1nc2c(OC)c(-c3nc4ccc(N5CCN(C)CC5)nc4[nH]3)cc(OC)c2n1C    28.6 µM (inactive)
NCc1ccc(O)c(O)c1O    20 µM (inactive)
CC(C)OP(=O)(OC(C)C)/C(I)=N/Nc1ccc([N+](=O)[O-])cc1    > 100 µM (inactive)

====

Here the recorded GI50 is given for each entry.
system: SNB-75; assay: NCI tumour cell line growth inhibition, 48 h
Activity calls are given as the source filed them. Cut-off read from the data, not from the text of the source: active = GI50 up to about 1.1 µM and inactive = higher.
Measured Property: GI50

Nc1nc(O)c2ncn(C3C=CC(CO)C3)c2n1 (stereo not drawn)    > 100 µM (inactive)
CC(=O)O[C@H]1C(=O)[C@@]2(C)[C@H]([C@H](OC(=O)c3ccccc3)[C@]3(O)C[C@H](OC(=O)[C@H](O)[C@@H](NC(=O)CC(C)C)c4ccccc4)C(C)=C1C3(C)C)[C@]1(OC(C)=O)CO[C@@H]1C[C@@H]2O    < 0.001 µM (active)
CC[C@@H]1CC[C@@H]2[C@H](CC[C@]3(C)[C@@H](OC(C)=O)CC[C@@H]23)[C@H]1C(=O)OC    22.3 µM (inactive)
COc1cc(/C=C/C=C2\CC/C(=C\C=C\c3ccc(O)c(OC)c3)C2=O)ccc1O    > 100 µM (inactive)
CCC(C)CCOC(=O)c1ccc(/N=C\c2ccc(/C=N/c3ccc(C(=O)OCCC(C)CC)cc3)cc2)cc1 (stereo not drawn)    > 100 µM (inactive)
CCOC(=O)C1N(S(=O)(=O)c2ccc(C)cc2)CCC12c1ccccc1N(C(C)=O)C2c1ccc(OC)c(OC)c1 (stereo not drawn)    74 µM (inactive)
C(=N\N=C1NCCN1)/c1ccc2ccccc2c1    29.5 µM (inactive)
COc1ccc(-c2onc(-c3ccc([N+](=O)[O-])cc3)c2C2=NCCN2)cc1    20.9 µM (inactive)

====

Recorded GI50 by entry
system: MOLT-4; assay: NCI tumour cell line growth inhibition, 48 h
Active and inactive are the calls of the source. Rule as the data show it: active = GI50 up to about 1.1 µM and inactive = higher.
Measured Property: GI50

O=C(CNc1nncs1)NO    > 100 µM (inactive)
CSc1nc(NC2OCC(OC(C)=O)C(OC(C)=O)C2OC(C)=O)c2c(OC(C)=O)c(C)c(=O)oc2n1 (stereo unspecified)    > 100 µM (inactive)
CCOC(=O)C12CCCC1(O)N(NC(=O)OC)C(C)=C2C(=O)OC (stereo unspecified)    > 100 µM (inactive)
N#Cc1c(N2CCCC2)nsc1Nc1ccc(F)cc1    > 100 µM (inactive)
C=CC(c1ccccc1)[C@@]1(OC(C)=O)C(=O)C(=O)OC1C1COC(C)(C)O1 (stereo partly specified)    3.7 µM (inactive)
O=C1C(Cl)=C(N2C(=O)CCC2=O)C(=O)c2ccccc21    50.7 µM (inactive)

====

system: HOP-62; assay: NCI tumour cell line growth inhibition, 48 h
The source made the active and inactive calls. Rule as the data show it: active = GI50 up to about 1.1 µM and inactive = higher.
Measured Property: GI50

O=C1CCN2C(=O)CCN12    > 100 µM (inactive)
Oc1cccnc1/C=N/OCc1ccccc1    > 100 µM (inactive)
O=C1C(Cl)N(c2ccccc2)C1c1c[nH]c2ccccc12 (centres undefined)    > 100 µM (inactive)
CCOC(=O)CCn1cnc(N)n1    > 100 µM (inactive)
COc1c2c(cc3c1C(=O)Cc1ccc4c(c1CN(C)CC3)OCO4)OCO2    > 100 µM (inactive)
CCC(=O)O[C@H]1CC[C@H]2[C@@H]3CCC4=C/C(=N/OC(=O)c5cccc6c(=O)c7ccccc7[nH]c56)CC[C@]4(C)[C@H]3CC[C@]12C    32.1 µM (inactive)
O=C1N/C(=N/N=C/c2ccccc2)N/C1=C\c1cccs1    18.3 µM (inactive)
CN(CCNC(=S)c1cn(C)c2c1ccc1ccccc12)CCNC(=S)c1cn(C)c2c1ccc1ccccc12    > 100 µM (inactive)
COC(=O)c1c(OC(C)=O)ccc2c1c1c(OC(C)=O)c3ccccc3c(OC(C)=O)c1n2Cc1ccccc1    8.61 µM (inactive)
Cc1ccc(S(=O)(=O)N2CC(CCN)c3ccccc32)cc1 (centres undefined)    6.78 µM (inactive)
O=C1OC2(OC2c2ccc(Cl)cc2)c2ccccc21 (centres undefined)    20.4 µM (inactive)
CCc1ccccc1NC(=O)C1=C(C)NC(C)=C(C(=O)Nc2ccccc2CC)C1c1ccc2c(c1)OCO2    17.1 µM (inactive)
CCN(CC)c1ccc(/N=C2/C=CC(=O)c3ncccc32)c(C)c1    20.2 µM (inactive)
O=S(=O)(O)c1ccc2c(/N=N/c3ccc(/N=N/c4ccccc4)cc3)c(O)c(S(=O)(=O)O)cc2c1    > 100 µM (inactive)
Cc1cc2cc3cc(C)c(N)cc3nc2cc1N    0.465 µM (active)
CC(=O)NNc1nc(C)c(C(=O)/C=C/c2ccc(Cl)cc2)s1    > 100 µM (inactive)
CCCc1n[nH]c(=O)n1N1C(=O)C=CC1=O    > 100 µM (inactive)
Nc1nc(=O)c2c([nH]1)NCC(CCNc1ccc(C(=O)O)cc1)N2 (centres undefined)    > 100 µM (inactive)
O=C1N/C(=N/N=C/c2c[nH]c3ccccc23)N/C1=C\c1c[nH]c2ccccc12    27 µM (inactive)
O=C1NCC2(CCN(Cc3ccccc3)CC2)N1    > 100 µM (inactive)
Cc1c2cnccc2c(C)c2c1c1ccccc1n2CCCCCCNCc1ccccc1    4.17 µM (inactive)
COC(=O)C1=C2SCc3ccc(cc3)CSC3=C(C(=O)OC)SC(=C(S2)S1)S3    > 100 µM (inactive)
C/C(=N\N=C(/S)N1CC2CCC(CC2)C1)c1cccc[n+]1[O-]    12.6 µM (inactive)
CSc1nc(=O)cnn1C    > 100 µM (inactive)

====

tested on: Malme-3M; test: NCI tumour cell line growth inhibition, 48 h
Activity calls are given as the source filed them. Rule as the data show it: active = GI50 up to about 1.1 µM and inactive = higher.
Labels: YES = active, NO = inactive

O=c1c2cc(Br)cc(Br)c2[nH]c(=S)n1-c1ccccc1    NO
COC(=O)CNC(=O)CCC(C)[C@H]1CCC2C3C(C[C@H](OC(C)=O)[C@@]21C)[C@@]1(C)CCC2(C[C@H]1C[C@H]3OC(C)=O)OOC1(CC[C@]3(C)C4C[C@H](OC(C)=O)[C@@]5(C)C(CC[C@@H]5C(C)CCC(=O)NCC(=O)OC)C4[C@H](OC(C)=O)C[C@@H]3C1)OO2 (some centres undefined)    YES
CC(C1CCCC1=O)C1CCCC1=O (centres undefined)    NO
Cc1ccc(/N=C2\C(=N/c3ccc(C)cc3)N(c3ccc(C)cc3)C(=S)N2C(=O)c2ccccc2)cc1    NO
C=CCOCn1cnc2c(N)ncnc21    NO
NP(=O)(Oc1c2occc2cc2ccc(=O)oc12)N(CCCl)CCCl (centres undefined)    NO
C(=N\N=C1NCCN1)/c1ccc2ccccc2c1    NO
Cc1occc1C(=S)Nc1ccc(Cl)c(/C=N/OC(C)C)c1    NO
CCCCN(CCCC)CCCn1cnc2ncccc2c1=O    NO

====

Reported GI50 values, HCT-15.
Measured Property: GI50 (µM)

CCN(CC)c1ccc(/N=C2/C=CC(=O)c3ncccc32)c(C)c1    3.08
CCOC(=O)NC(Nc1ccc(F)cc1)(C(=O)OCC)C(F)(F)F (stereo not given)    29.6

====

test system: HT-29; experiment: NCI tumour cell line growth inhibition, 48 h
Activity calls are given as the source filed them. No stated cut-off is given here; in the data, active = GI50 up to about 1.1 µM and inactive = higher.
Measured Property: GI50

CC(NC(=O)C(Cc1ccc(OC(=O)c2ccccc2)cc1)NC(=O)OC(C)(C)C)C(=O)NCC(=O)NC(Cc1ccccc1)NC(=O)OCc1ccccc1 (stereo not given)    > 100 µM (inactive)
CC(C)CNCCc1ccccn1    > 100 µM (inactive)
O=C(Sc1c(-c2ccccc2)c(=O)n(-c2ccccc2)c(=S)n1-c1ccccc1)c1ccc(Cl)cc1    > 100 µM (inactive)
CCCN(CCC)c1c([N+](=O)[O-])cc(C(N)=O)cc1[N+](=O)[O-]    > 100 µM (inactive)
O=C1OC(C2OC(=O)c3cc(O)c(O)c(O)c3-c3c(O)c(O)c4oc(=O)c5c(c(O)c(O)c6oc(=O)c3c4c65)-c3c(cc(O)c(O)c3O)C(=O)OCC2O)C2OC(=O)c3c(c(O)c(O)c(O)c3[C@H]2O)-c2c1cc(O)c(O)c2O (stereo not given in full)    13.3 µM (inactive)
O=C(c1ccccc1)N(C(=O)c1ccccc1)c1nc(SCc2ccccc2)ns1    25.5 µM (inactive)
CC[C@@H]1CC[C@@H]2[C@H](CC[C@]3(C)[C@@H](OC(C)=O)CC[C@@H]23)[C@H]1C(=O)OC    25 µM (inactive)
C=CC(c1ccccc1)[C@@]1(OC(C)=O)C(=O)C(=O)OC1C1COC(C)(C)O1 (stereo not given in full)    15.1 µM (inactive)
CN(C)Cc1cc(C(=O)/C=C/c2ccc(Cl)c(Cl)c2)cc(CN(C)C)c1O    1.24 µM (inactive)
Cc1cc(=O)[nH]c2cc(NC(=O)C(CCCNC(=N)N)NC(=O)OCc3ccccc3)ccc12 (stereo not given)    > 100 µM (inactive)
